# method-description: Evaluation of conversion rate to active form in buffer solution (Experimental Example 1)
# Format: physicochemical
# settings: pH 5, 37° C., up to 2 or 3 hours
measured-parameter: Stability in buffer solution at pH 5

These solved cases illustrate the format of a correct answer.
- compound: "CCCN(CC1CCCCN1)C(=O)Oc1cc(O)c2c(=O)cc(-c3ccccc3Cl)oc2c1[C@H]1CCN(C)C[C@H]1O (some centres unmarked) [Example 9]"
  Stability in buffer solution at pH 5: "stable"
- compound: "CN1CC[C@H](c2c(OC(=O)N(C)C[C@H]3CCCCN3)cc(O)c3c(=O)cc(-c4ccccc4Cl)oc23)[C@H](O)C1 [Example 4]"
  Stability in buffer solution at pH 5: "stable"
- compound: "CCN(C[C@@H]1CCCCN1)C(=O)Oc1cc(O)c2c(=O)cc(-c3ccccc3Cl)oc2c1[C@H]1CCN(C)C[C@H]1O [Example 1, ditrifluoroacetate]"
  Stability in buffer solution at pH 5: "stable"
- compound: "CN1CC[C@H](c2c(O)cc(O)c3c(=O)cc(-c4ccccc4Cl)oc23)[C@H](OC(=O)CN)C1 [Comparative Example 8, reference compound]"
  Stability in buffer solution at pH 5: "unstable"

Stability in buffer solution at pH 5 measured on CCNC(=O)Oc1cc(O)c2c(=O)cc(-c3ccccc3Cl)oc2c1[C@H]1CCN(C)C[C@H]1O [Comparative Example 1, reference compound] = unstable
